Values from patent US20250237662A1

Documented pKd across a set of binders
Biological target: humanized development candidate monoclonal antibody IgG4 (hIgG4)
Assay: SPR (Biacore T200), mAb captured by anti-rabbit mAb on CM5, antigen 80-0 nM, 1:1 fit
Please note pKd is a logarithmic value: minus log10 of concentration in mol/L. Answer with that number alone.

rabbit anti-human IgG monoclonal antibody clone 2C5 (antibody, V domains shown) VH: QEQLVESGGDLVKPGASLTLTCTASGFSFSSGYYMCWVRQAPGKGLEWIACIYGGALTNTYYATWAKGRFTISKTSSTTVTLQMTSLTAADTATYFCARDLGAAGDAYNLWGPGTLVTVSS VL: ASDMTQTPASVSAAVGGTVTIKCQASESIYSGLAWYQQKPGQPPKLLIFDASDLASGVPSRFKGSRSETEYTLTISDLECADAATYYCQCTDRNSITSYAFGGGTEVVVKG; 10.00

Entry rabbit anti-human IgG monoclonal antibody clone 19B1 (antibody, V domains shown) VH: QEQLVESGGGLVQPEGSLTLTCTASGFSFSDSYYMCWVRQAPGKGLEWIACIYGGTITNTYYASWAKGRFTISKTSSTTVTLQMTSLTAADTATYFCARDLGAAGDAYNLWGPGTLVTVSS VL: ASDMTQTPASVSEPVGGTVTIKCQASENIYSSLAWYQQKPGQPPKLLIYDASNLASGVPSRFSGSGSGTEFTLTISDLECADAATYYCQCTYRSSSSSYAFGGGTEVVVKG has what pKd?
10.17

Entry rabbit anti-human IgG monoclonal antibody clone 9E6 (antibody, V domains shown) VH: QSLEESGGDLVKPGASLTLTCKASGFDFSSSYYMCWVRQAPGRLEWIACIYGGGLSNTYYAGWAKGRFTISKTSSTTVTLQMTSLTVADTATYFCARDAGTSGDYLNLWGPGTLVTVSS VL: AVVMTQTASPVSGAVGGTVTINCQASQSISSSYLSWYQQKPGQPPKLLIYGASTLASGVPSRFKGSGSGTQFTLTISGVQCDDAATYYCAYDAYRLSSPDNIFGGGTEVVVKG has what pKd?
9.71
